# Target: UniProt Q99572
# Sequence (Q99572 whole entry): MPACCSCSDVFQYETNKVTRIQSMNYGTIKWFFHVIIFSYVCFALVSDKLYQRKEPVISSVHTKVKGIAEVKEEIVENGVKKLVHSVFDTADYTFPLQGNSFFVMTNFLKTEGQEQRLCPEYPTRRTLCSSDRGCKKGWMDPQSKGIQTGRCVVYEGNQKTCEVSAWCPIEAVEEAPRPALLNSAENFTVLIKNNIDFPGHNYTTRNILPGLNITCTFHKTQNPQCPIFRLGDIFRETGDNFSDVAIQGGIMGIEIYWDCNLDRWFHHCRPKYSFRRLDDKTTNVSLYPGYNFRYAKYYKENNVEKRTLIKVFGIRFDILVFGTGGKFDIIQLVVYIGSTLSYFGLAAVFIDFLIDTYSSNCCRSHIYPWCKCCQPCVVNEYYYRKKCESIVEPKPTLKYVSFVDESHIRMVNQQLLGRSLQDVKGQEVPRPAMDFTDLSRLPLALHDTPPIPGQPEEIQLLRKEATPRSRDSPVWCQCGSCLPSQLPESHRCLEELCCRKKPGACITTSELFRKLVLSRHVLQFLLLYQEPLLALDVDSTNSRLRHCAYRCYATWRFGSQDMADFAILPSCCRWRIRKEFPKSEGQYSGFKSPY
Just a reminder that ties go to false (0): only IC50 strictly below 0.2 µM counts as true (1).

Compound | Target | Assigned label
CC1(C(=O)NCc2ccc(Cl)cc2Cl)CCC(=O)N1C1CCC1 (stereo unspecified) | UniProt Q99572 | true (1)
Cc1cccc(C(=O)N2CCN(c3ccc(F)cc3Cl)C(=O)C2)c1Cl | UniProt Q99572 | true (1)
O=C(c1cccc(C(F)(F)F)c1Cl)N1CCN(C2CCCC2)C(=O)C1 | UniProt Q99572 | true (1)
Cc1c(N2CCOCC2)cccc1N1CCN(C(=O)c2cccc(Cl)c2Cl)CC1=O | UniProt Q99572 | true (1)
Cc1nn(-c2ccc(C#N)cn2)c(C)c1CC(=O)NCc1ccc(F)cc1Cl | UniProt Q99572 | false (0)
Cc1nn(-c2ccccc2)c(C)c1CC(=O)NCc1ccc(F)c(F)c1F | UniProt Q99572 | true (1)
O=C(NCc1cccc(C(F)(F)F)c1Cl)C1CC(=O)N(Cc2ccccc2)C1 (stereo unspecified) | UniProt Q99572 | false (0)
COc1ncccc1-n1nc(C)c(CC(=O)NCc2ccc(F)cc2Cl)c1C | UniProt Q99572 | false (0)
